Cited source: patent EP1379283B1

testedOn: vasopressin-1 receptor (Rattus norvegicus, UniProt P30560)
Construct: cell membranes prepared from rat liver; from tissue; host or cells: rat liver membranes
Sequence (P30560 whole entry): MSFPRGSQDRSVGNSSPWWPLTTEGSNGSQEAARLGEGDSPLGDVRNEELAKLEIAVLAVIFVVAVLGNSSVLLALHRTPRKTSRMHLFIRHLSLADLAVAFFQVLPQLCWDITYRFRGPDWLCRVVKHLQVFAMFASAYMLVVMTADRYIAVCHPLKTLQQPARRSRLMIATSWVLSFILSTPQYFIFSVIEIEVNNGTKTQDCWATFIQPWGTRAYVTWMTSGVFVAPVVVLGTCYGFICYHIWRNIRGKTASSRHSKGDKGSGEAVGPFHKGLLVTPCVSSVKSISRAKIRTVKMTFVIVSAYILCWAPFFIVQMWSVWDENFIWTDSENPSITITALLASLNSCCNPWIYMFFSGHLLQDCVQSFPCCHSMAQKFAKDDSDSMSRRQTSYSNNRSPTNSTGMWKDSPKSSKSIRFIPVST
procedureSummary: vasopressin-1 receptor binding, 3H-vasopressin-1 antagonist, cell membranes from rat liver
protocolConditions: Table 29, vasopressin ligand library
Give measured % Inhibition at 1 µM Vasopressin-1 Receptor for each item. Keep answers brief.
Record the value in %, omitting the unit from your answer.

Exercise: What value of % Inhibition at 1 µM Vasopressin-1 Receptor has been recorded for this entry: `Pmp-D-Trp-Cys-Ile-Thr-Dap-Ala-Pro-Orn-NH2`
Solution: 23

Exercise: Could you do the same for `Caca-D-Trp-Ile-Cys-Thr-Dap-Ala-Pro-Orn-NH2` , please?
Solution: 52

Exercise: Follow-up entry: `Caca-D-Trp-Ile-Thr-Dap-Ala-Ala-Cys-Orn-NH2`
Solution: 0

Exercise: Proceed to `Caca-D-Trp-Ile-Thr-Dap-Ala-Cys-Ala-Orn-NH2`
Solution: 0

Exercise: And for `Caca-D-Trp-Ile-Thr-Dap-Cys-Ala-Pro-Orn-NH2` ?
Solution: 22

Exercise: And `Caca-D-Trp-Ile-Thr-Dap-Ala-Ala-Orn-Cys-NH2` ?
Solution: 23

Exercise: And the next one, `Caca-D-Trp-Ile-Thr-Cys-Dap-Ala-Pro-Orn-NH2` ?
Solution: 0

Exercise: And the next one, `Caca-D-Trp-Ile-Thr-Dap-Ala-Cys-Pro-Orn-NH2` ?
Solution: 0

###

testedOn: vasopressin-1 receptor (Rattus norvegicus, UniProt P30560)
Construct: cell membranes prepared from rat liver; from tissue; host or cells: rat liver membranes
procedureSummary: vasopressin-1 receptor binding, 3H-vasopressin-1 antagonist, cell membranes from rat liver
protocolConditions: Table 30, oxytocin ligand library
Ends that are not written are not given here.
measurementName: % Inhibition at 1 µM Vasopressin-1 Receptor (%)
Could you give me the number in %? Just the number is fine.

Exercise: I have this substance here, Ala-Tyr-Ile-Gln-Asn-Ala-Pro-Leu-Gly-Cys-NH2 (AYIQNAPLGC-NH2; not fully specified (bridges); printed as Ala-Tyr-Ile-Gln-Asn-Ala-Pro-Leu-Gly-Cys-NH2; also: oxorhenium(V) N3S1 metal chelate (X-X-Cys)) [SEQ ID NO:149] , and I need its recorded % Inhibition at 1 µM Vasopressin-1 Receptor.
Solution: 0

Exercise: Same for Ala-Tyr-Ile-Gln-Asn-Ala-Ala-Leu-Gly-Cys-NH2 (AYIQNAALGC-NH2; not fully specified (bridges); printed as Ala-Tyr-Ile-Gln-Asn-Ala-Ala-Leu-Gly-Cys-NH2; also: oxorhenium(V) N3S1 metal chelate (X-X-Cys)) [SEQ ID NO:150]
Solution: 0

Exercise: Then Ala-Tyr-Ile-Gln-Cys-Asn-Ala-Pro-Leu-Gly-NH2 (AYIQCNAPLG-NH2; not fully specified (bridges); printed as Ala-Tyr-Ile-Gln-Cys-Asn-Ala-Pro-Leu-Gly-NH2; also: oxorhenium(V) N3S1 metal chelate (X-X-Cys)) [SEQ ID NO:156] ?
Solution: 0

Exercise: Now consider Ala-Tyr-Ile-Gln-Asn-Ala-Ala-Cys-Leu-Gly-NH2 (AYIQNAACLG-NH2; not fully specified (bridges); printed as Ala-Tyr-Ile-Gln-Asn-Ala-Ala-Cys-Leu-Gly-NH2; also: oxorhenium(V) N3S1 metal chelate (X-X-Cys)) [SEQ ID NO:152] and answer again.
Solution: 1

###

testedOn: oxytocin receptor (Rattus norvegicus)
Construct: cell membranes prepared from rat uterus; from tissue; host or cells: rat uterus membranes
Sequence (P70536 1-388): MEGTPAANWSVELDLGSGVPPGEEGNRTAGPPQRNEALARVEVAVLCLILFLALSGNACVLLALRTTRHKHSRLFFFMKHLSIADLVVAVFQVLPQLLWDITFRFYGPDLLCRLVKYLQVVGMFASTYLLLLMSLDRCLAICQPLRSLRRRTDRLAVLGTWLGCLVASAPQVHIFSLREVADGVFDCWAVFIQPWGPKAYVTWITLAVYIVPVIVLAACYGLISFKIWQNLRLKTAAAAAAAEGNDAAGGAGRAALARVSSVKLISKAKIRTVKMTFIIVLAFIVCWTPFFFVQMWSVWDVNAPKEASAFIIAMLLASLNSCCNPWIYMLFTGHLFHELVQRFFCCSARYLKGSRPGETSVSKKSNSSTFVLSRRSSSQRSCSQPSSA
procedureSummary: oxytocin receptor binding, 3H-oxytocin, cell membranes from rat uterus
protocolConditions: Table 30, oxytocin ligand library; 1 µM; rat uterus membranes; 3H-oxytocin
Ends that are not written are not given here.
measurementName: % Inhibition at 1 µM Oxytocin Receptor (%)
Only the number, expressed in %, is required.

Exercise: What value of % Inhibition at 1 µM Oxytocin Receptor has been recorded for this entry: Ala-Tyr-Ile-Gln-Asn-Ala-Cys-Pro-Leu-Gly-NH2 (AYIQNACPLG-NH2; not fully specified (bridges); printed as Ala-Tyr-Ile-Gln-Asn-Ala-Cys-Pro-Leu-Gly-NH2; also: oxorhenium(V) N3S1 metal chelate (X-X-Cys)) [SEQ ID NO:153]
Solution: 2

Exercise: Item: Ala-Tyr-Ile-Gln-Asn-Ala-Ala-Leu-Cys-Gly-NH2 (AYIQNAALCG-NH2; not fully specified (bridges); printed as Ala-Tyr-Ile-Gln-Asn-Ala-Ala-Leu-Cys-Gly-NH2; also: oxorhenium(V) N3S1 metal chelate (X-X-Cys)) [SEQ ID NO:151]
Solution: 0

Exercise: Consider next the substance Ala-Tyr-Ile-Gln-Asn-Ala-Ala-Cys-Leu-Gly-NH2 (AYIQNAACLG-NH2; not fully specified (bridges); printed as Ala-Tyr-Ile-Gln-Asn-Ala-Ala-Cys-Leu-Gly-NH2; also: oxorhenium(V) N3S1 metal chelate (X-X-Cys)) [SEQ ID NO:152] in the same way.
Solution: 0

Exercise: Another substance: Ala-Tyr-Ile-Gln-Asn-Ala-Pro-Leu-Gly-Cys-NH2 (AYIQNAPLGC-NH2; not fully specified (bridges); printed as Ala-Tyr-Ile-Gln-Asn-Ala-Pro-Leu-Gly-Cys-NH2; also: oxorhenium(V) N3S1 metal chelate (X-X-Cys)) [SEQ ID NO:149]
Solution: 6

Exercise: Lookup Ala-Tyr-Ile-Gln-Asn-Ala-Cys-Ala-Leu-Gly-NH2 (AYIQNACALG-NH2; not fully specified (bridges); printed as Ala-Tyr-Ile-Gln-Asn-Ala-Cys-Ala-Leu-Gly-NH2; also: oxorhenium(V) N3S1 metal chelate (X-X-Cys)) [SEQ ID NO:154]
Solution: 31

Exercise: Try this substance too: Ala-Tyr-Ile-Cys-Gln-Asn-Ala-Pro-Leu-Gly-NH2 (AYICQNAPLG-NH2; not fully specified (bridges); printed as Ala-Tyr-Ile-Cys-Gln-Asn-Ala-Pro-Leu-Gly-NH2; also: oxorhenium(V) N3S1 metal chelate (X-X-Cys)) [SEQ ID NO:157]
Solution: 0

Exercise: Again, but for Ala-Tyr-Cys-Ile-Gln-Asn-Ala-Pro-Leu-Gly-NH2 (AYCIQNAPLG-NH2; not fully specified (bridges); printed as Ala-Tyr-Cys-Ile-Gln-Asn-Ala-Pro-Leu-Gly-NH2; also: oxorhenium(V) N3S1 metal chelate (X-X-Cys)) [SEQ ID NO:158]
Solution: 6

Exercise: Please give the result for Ala-Tyr-Ile-Gln-Cys-Asn-Ala-Pro-Leu-Gly-NH2 (AYIQCNAPLG-NH2; not fully specified (bridges); printed as Ala-Tyr-Ile-Gln-Cys-Asn-Ala-Pro-Leu-Gly-NH2; also: oxorhenium(V) N3S1 metal chelate (X-X-Cys)) [SEQ ID NO:156] too.
Solution: 18

###

testedOn: vasopressin-1 receptor (Rattus norvegicus)
Construct: cell membranes prepared from rat liver; from tissue; host or cells: rat liver membranes
procedureSummary: vasopressin-1 receptor binding, 3H-vasopressin-1 antagonist, cell membranes from rat liver
protocolConditions: Table 30, oxytocin ligand library
Ends that are not written are not given here.
measurementName: % Inhibition at 1 µM Vasopressin-1 Receptor (%)
Form entry: value (%) — number only.

Exercise: Item under review: Ala-Tyr-Ile-Gln-Asn-Ala-Ala-Leu-Cys-Gly-NH2 (AYIQNAALCG-NH2; not fully specified (bridges); printed as Ala-Tyr-Ile-Gln-Asn-Ala-Ala-Leu-Cys-Gly-NH2; also: oxorhenium(V) N3S1 metal chelate (X-X-Cys)) [SEQ ID NO:151] . Reported % Inhibition at 1 µM Vasopressin-1 Receptor?
Solution: 0

Exercise: Proceed to Ala-Tyr-Ile-Gln-Asn-Ala-Cys-Pro-Leu-Gly-NH2 (AYIQNACPLG-NH2; not fully specified (bridges); printed as Ala-Tyr-Ile-Gln-Asn-Ala-Cys-Pro-Leu-Gly-NH2; also: oxorhenium(V) N3S1 metal chelate (X-X-Cys)) [SEQ ID NO:153]
Solution: 0

Exercise: Another substance: Ala-Tyr-Ile-Cys-Gln-Asn-Ala-Pro-Leu-Gly-NH2 (AYICQNAPLG-NH2; not fully specified (bridges); printed as Ala-Tyr-Ile-Cys-Gln-Asn-Ala-Pro-Leu-Gly-NH2; also: oxorhenium(V) N3S1 metal chelate (X-X-Cys)) [SEQ ID NO:157]
Solution: 0
